- Tested on: MGC-803
- run_description: Antiproliferative activity against human MGC803 cells assessed as inhibition of cell viability after 24 hrs by MTT assay
- Assay type: functional, cell-based
- conditions_used: MGC-803, 24 h
measured_attribute: pIC50
Scale explanation: pIC50 corresponds to minus log10 of a concentration expressed in moles per litre.

For `CCN(CC)CCCCOc1cc(O)c2c(=O)c3ccccc3oc2c1` the molecule record lists pIC50 as 4.92

---

- Tested on: MGC-803
- run_description: Antiproliferative activity against human MGC803 cells assessed as inhibition of cell viability after 72 hrs by MTT assay
- Type: functional, cell-based
- conditions_used: MGC-803, 72 h
measured_attribute: IC50 (nM)
Answer in nM, number only, no unit symbol.

Hey, MGC-803 data for `CCN(CC)CCCCOc1cc(O)c2c(=O)c3ccccc3oc2c1` : IC50 came out at 1820
